Biological target: human recombinant dopamine D2 receptor (Homo sapiens (Human), UniProt P14416)
Sequence (P14416 whole entry): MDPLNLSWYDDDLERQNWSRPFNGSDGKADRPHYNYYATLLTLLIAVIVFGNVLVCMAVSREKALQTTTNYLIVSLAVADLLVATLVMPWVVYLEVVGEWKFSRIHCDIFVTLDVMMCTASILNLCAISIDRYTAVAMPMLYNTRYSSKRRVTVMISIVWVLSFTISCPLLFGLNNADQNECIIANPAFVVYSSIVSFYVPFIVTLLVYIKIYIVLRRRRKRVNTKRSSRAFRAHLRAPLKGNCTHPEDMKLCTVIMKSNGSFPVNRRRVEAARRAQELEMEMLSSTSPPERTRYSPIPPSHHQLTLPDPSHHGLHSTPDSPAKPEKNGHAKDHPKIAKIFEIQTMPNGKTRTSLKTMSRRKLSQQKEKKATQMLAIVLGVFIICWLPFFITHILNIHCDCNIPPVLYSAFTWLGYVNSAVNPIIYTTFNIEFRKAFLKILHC
Assay: Test of binding inhibition for dopamine D2 receptor ([3H]-Methylspiperone SPA)
Conditions: [3H]-Methylspiperone 1.2 nM, Jump-In HEK cell membranes; read-out: hD2_Ki
Ki: recorded values
outcome-measure: Ki (nM)

compound="CN1Cc2c(C(=O)NC34CCC(CCN5CCc6nc(OCC(F)(F)F)sc6CC5)(CC3)CC4)cccc2C1=O [II-2]" measured_target="human recombinant dopamine D2 receptor (Homo sapiens (Human), UniProt P14416)" sign_qualifier=> measured_value=2200
compound="Cn1ncc(CC(=O)N[C@H]2CC[C@H](CCN3CCc4nc(OCC(F)F)sc4CC3)CC2)c1F [I′-28]" measured_target="human recombinant dopamine D2 receptor (Homo sapiens (Human), UniProt P14416)" sign_qualifier== measured_value=1500
compound="Cc1cnc(OCC(=O)N[C@H]2CC[C@](F)(CCN3CCc4nc(OCC(F)(F)F)sc4CC3)CC2)cn1 [I′-52]" measured_target="human recombinant dopamine D2 receptor (Homo sapiens (Human), UniProt P14416)" sign_qualifier=> measured_value=2200
compound="Cc1nc(CC(=O)N[C@H]2CC[C@H](CCN3CCc4ccc(CCC(F)(F)F)nc4CC3)CC2)nn1C [I′-14]" measured_target="human recombinant dopamine D2 receptor (Homo sapiens (Human), UniProt P14416)" sign_qualifier=> measured_value=2300
compound="Cc1ncc(/C=C/C(=O)N[C@H]2CC[C@H](CCN3CCc4ccc(CCC(F)(F)F)nc4CC3)CC2)cn1 [I′-20]" measured_target="human recombinant dopamine D2 receptor (Homo sapiens (Human), UniProt P14416)" sign_qualifier== measured_value=260
compound="Cn1cc2c(C(=O)NC34CCC(CCN5CCc6nc(OCC(F)(F)F)sc6CC5)(CC3)OC4)cccc2n1 [II-11]" measured_target="human recombinant dopamine D2 receptor (Homo sapiens (Human), UniProt P14416)" sign_qualifier=> measured_value=2300
compound="Cn1ncc(CC(=O)N[C@H]2CC[C@](F)(CCN3CCc4nc(OCC(F)F)sc4CC3)CC2)n1 [I′-41]" measured_target="human recombinant dopamine D2 receptor (Homo sapiens (Human), UniProt P14416)" sign_qualifier== measured_value=1900
compound="Cc1ncccc1C(=O)N[C@H]1CC[C@H](CCN2CCc3ccc(CCC(F)(F)F)nc3CC2)CC1 [I′-1]" measured_target="human recombinant dopamine D2 receptor (Homo sapiens (Human), UniProt P14416)" sign_qualifier== measured_value=920

----------
pKi: recorded values
Molecular target: human recombinant dopamine D2 receptor (Homo sapiens (Human))
Assay: Test of binding inhibition for dopamine D2 receptor ([3H]-Methylspiperone SPA)
Conditions: Jump-In HEK cell membranes, 1.2 nM [3H]-Methylspiperone, 120 min at 25° C.; read-out: hD2_Ki
pKi: −log10 of the molar value.
outcome-measure: pKi

chem_smiles=Cc1cnc(CC(=O)N[C@H]2CC[C@](F)(CCN3CCc4nc(OCC(F)F)sc4CC3)CC2)o1 outcome_measure=pKi sign_qualifier=< measured_value=5.77
chem_smiles=Cc1cnc(CC(=O)N[C@H]2CC[C@](F)(CCN3CCc4nc(OCC(C)(F)F)sc4CC3)CC2)o1 outcome_measure=pKi sign_qualifier== measured_value=6.00
chem_smiles=C[C@@H](Oc1ccc2c(n1)CCN(CC[C@H]1CC[C@H](NC(=O)COc3cnn(C)c3)CC1)CC2)C(F)(F)F outcome_measure=pKi sign_qualifier== measured_value=6.72
chem_smiles=Cn1cc(CC(=O)N[C@H]2CC[C@](F)(CCN3CCc4ccc(OCC(C)(F)F)nc4CC3)CC2)cn1 outcome_measure=pKi sign_qualifier== measured_value=6.62
chem_smiles=CN1Cc2c(C(=O)N[C@H]3CC[C@H](CCN4CCc5sc(C6CC(F)(F)C6)nc5C4)CC3)cccc2C1=O outcome_measure=pKi sign_qualifier== measured_value=6.59
chem_smiles=Cn1cc(CC(=O)N[C@H]2CC[C@H](CCN3CCc4ccc(OCC(F)F)nc4CC3)CC2)cn1 outcome_measure=pKi sign_qualifier== measured_value=5.85
chem_smiles=Cn1cc2ccc(C(=O)N[C@H]3CC[C@H](CCN4CCc5nc(OCC(C)(F)F)sc5CC4)CC3)cc2n1 outcome_measure=pKi sign_qualifier=< measured_value=5.74

Values from patent US11578084B2
